system: NCI-H1792; experiment: relative viability (nuclei count vs DMSO), 5 days (fraction); higher = more cells survive; settings: first compound 2.53 µM
Categories are assigned from the measured relative viability using these intervals: lowest: < 0.5; middle: ≥ 0.5 and < 0.7; highest: ≥ 0.7

molecule: COc1nc(C)cnc1NS(=O)(=O)c1cccnc1-c1ccc(-c2nnco2)cc1 [Zibotentan] + NC(=O)Nc1cc(-c2cccc(F)c2)sc1C(=O)N[C@H]1CCCNC1 [AZD7762] (partner 0.2 µM)
categoryLabel: highest
--
molecule: O=c1cc(-c2cccc3c2Sc2ccccc2S3)oc(N2CCOCC2)c1 + Cc1nc(Nc2ncc(C(=O)Nc3c(C)cccc3Cl)s2)cc(N2CCN(CCO)CC2)n1 [Dasatinib] (partner 0.075 µM)
categoryLabel: highest
--
molecule: COc1nc(C)cnc1NS(=O)(=O)c1cccnc1-c1ccc(-c2nnco2)cc1 [Zibotentan] + Cc1nc(NC(=O)N2CCC[C@H]2C(N)=O)sc1-c1ccnc(C(C)(C)C(F)(F)F)c1 [Alpelisib] (partner 2 µM)
categoryLabel: middle
--
molecule: O=c1cc(-c2cccc3c2Sc2ccccc2S3)oc(N2CCOCC2)c1 + Nc1ncn([C@H]2C[C@H](O)[C@@H](CO)O2)c(=O)n1 [Decitabine] (partner 2 µM)
categoryLabel: highest
--
molecule: O=c1cc(-c2cccc3c2Sc2ccccc2S3)oc(N2CCOCC2)c1 + CS(=O)(=O)N1CCN(Cc2cc3nc(-c4cccc5[nH]ncc45)nc(N4CCOCC4)c3s2)CC1 [Pictilisib] (partner 1 µM)
categoryLabel: lowest
--
molecule: COc1nc(C)cnc1NS(=O)(=O)c1cccnc1-c1ccc(-c2nnco2)cc1 [Zibotentan] + CS(=O)(=O)N1CCN(Cc2cc3nc(-c4cccc5[nH]ncc45)nc(N4CCOCC4)c3s2)CC1 [Pictilisib] (partner 1 µM)
categoryLabel: lowest
--
molecule: O=c1cc(-c2cccc3c2Sc2ccccc2S3)oc(N2CCOCC2)c1 + C[C@]1(O)C[C@@H](c2nc(-c3ccc4ccc(-c5ccccc5)nc4c3)c3c(N)nccn32)C1 [Linsitinib] (partner 1 µM)
categoryLabel: middle
--
molecule: O=c1cc(-c2cccc3c2Sc2ccccc2S3)oc(N2CCOCC2)c1 + NC(=O)Nc1cc(-c2cccc(F)c2)sc1C(=O)N[C@H]1CCCNC1 [AZD7762] (partner 0.2 µM)
categoryLabel: middle
--
molecule: COc1nc(C)cnc1NS(=O)(=O)c1cccnc1-c1ccc(-c2nnco2)cc1 [Zibotentan] + Nc1nc2[nH]cc(CCc3ccc(C(=O)N[C@@H](CCC(=O)O)C(=O)O)cc3)c2c(=O)[nH]1 [Pemetrexed] (partner 0.2 µM)
categoryLabel: highest
--
molecule: O=c1cc(-c2cccc3c2Sc2ccccc2S3)oc(N2CCOCC2)c1 + O=C(c1cc(Cc2n[nH]c(=O)c3ccccc23)ccc1F)N1CCN(C(=O)C2CC2)CC1 [Olaparib] (partner 8 µM)
categoryLabel: lowest

====

tested on: NCI-H647; assay: relative viability (nuclei count vs DMSO), 5 days (fraction); higher = more cells survive; settings: first compound 20 µM
I'd appreciate it if you marked entries Fulfilled when relative viability is lower than 0.4 and Not fulfilled when it is not.

molecule: COCC1(CO)C(=O)C2CCN1CC2 (stereo unspecified) [PRIMA-1MET] + CS(=O)(=O)CCNCc1ccc(-c2ccc3ncnc(Nc4ccc(OCc5cccc(F)c5)c(Cl)c4)c3c2)o1 [Lapatinib] (partner 2 µM)
experimentalSystem: NCI-H647
categoryLabel: Not fulfilled

molecule: COCC1(CO)C(=O)C2CCN1CC2 (stereo unspecified) [PRIMA-1MET] + COc1cc2c(Oc3ccc(NC(=O)C4(C(=O)Nc5ccc(F)cc5)CC4)cc3F)ccnc2cc1OCCCN1CCOCC1 [Foretinib] (partner 0.25 µM)
experimentalSystem: NCI-H647
categoryLabel: Not fulfilled

molecule: COCC1(CO)C(=O)C2CCN1CC2 (stereo unspecified) [PRIMA-1MET] + Cc1cc(Nc2cc(N3CCN(C)CC3)nc(Sc3ccc(NC(=O)C4CC4)cc3)n2)n[nH]1 [Tozasertib] (partner 0.1 µM)
experimentalSystem: NCI-H647
categoryLabel: Fulfilled

molecule: COCC1(CO)C(=O)C2CCN1CC2 (stereo unspecified) [PRIMA-1MET] + CC(=O)c1c(C)c2cnc(Nc3ccc(N4CCNCC4)cn3)nc2n(C2CCCC2)c1=O [Palbociclib] (partner 0.5 µM)
experimentalSystem: NCI-H647
categoryLabel: Not fulfilled

molecule: COCC1(CO)C(=O)C2CCN1CC2 (stereo unspecified) [PRIMA-1MET] + NC(=O)Nc1cc(-c2cccc(F)c2)sc1C(=O)N[C@H]1CCCNC1 [AZD7762] (partner 0.2 µM)
experimentalSystem: NCI-H647
categoryLabel: Fulfilled

====

test system: COR-L23; test: relative viability (nuclei count vs DMSO), 5 days (fraction); higher = more cells survive; conditions: first compound 1 µM

compound: O=c1cc(N2CCOCC2)oc2c(-c3cccc4c3sc3ccccc34)cccc12 + O=C(c1cc(Cc2n[nH]c(=O)c3ccccc23)ccc1F)N1CCN(C(=O)C2CC2)CC1 [Olaparib] (partner 8 µM)
relative viability: 0.37
--
compound: CCN(CC)CCCCNc1ncc2cc(-c3cc(OC)cc(OC)c3)c(NC(=O)NC(C)(C)C)nc2n1 + C[C@]1(O)C[C@@H](c2nc(-c3ccc4ccc(-c5ccccc5)nc4c3)c3c(N)nccn32)C1 [Linsitinib] (partner 1 µM)
relative viability: 0.948
--
compound: O=c1cc(N2CCOCC2)oc2c(-c3cccc4c3sc3ccccc34)cccc12 + CCNC(=O)c1noc(-c2cc(C(C)C)c(O)cc2O)c1-c1ccc(CN2CCOCC2)cc1 [Luminespib] (partner 0.01 µM)
relative viability: 0.779
--
compound: CCN(CC)CCCCNc1ncc2cc(-c3cc(OC)cc(OC)c3)c(NC(=O)NC(C)(C)C)nc2n1 + C[C@@H](Oc1cc(-c2cnn(C3CCNCC3)c2)cnc1N)c1c(Cl)ccc(F)c1Cl [Crizotinib] (partner 1 µM)
relative viability: 0.759
--
compound: CCN(CC)CCCCNc1ncc2cc(-c3cc(OC)cc(OC)c3)c(NC(=O)NC(C)(C)C)nc2n1 + CC(=O)Nc1cccc(-n2c(=O)n(C3CC3)c(=O)c3c(Nc4ccc(I)cc4F)n(C)c(=O)c(C)c32)c1 [Trametinib] (partner 0.02 µM)
relative viability: 0.61
--
compound: CCN(CC)CCCCNc1ncc2cc(-c3cc(OC)cc(OC)c3)c(NC(=O)NC(C)(C)C)nc2n1 + Cc1cc(Nc2cc(N3CCN(C)CC3)nc(Sc3ccc(NC(=O)C4CC4)cc3)n2)n[nH]1 [Tozasertib] (partner 0.1 µM)
relative viability: 0.171
--
compound: CCN(CC)CCCCNc1ncc2cc(-c3cc(OC)cc(OC)c3)c(NC(=O)NC(C)(C)C)nc2n1 + CCNC(=O)c1noc(-c2cc(C(C)C)c(O)cc2O)c1-c1ccc(CN2CCOCC2)cc1 [Luminespib] (partner 0.01 µM)
relative viability: 0.639
--
compound: O=c1cc(N2CCOCC2)oc2c(-c3cccc4c3sc3ccccc34)cccc12 + Nc1ncn([C@H]2C[C@H](O)[C@@H](CO)O2)c(=O)n1 [Decitabine] (partner 2 µM)
relative viability: 0.504

====

test system: NCI-H1650; assay: relative viability (nuclei count vs DMSO), 5 days (fraction); higher = more cells survive; details: first compound 0.3162 µM

compound: CCN(CC)CCCCNc1ncc2cc(-c3cc(OC)cc(OC)c3)c(NC(=O)NC(C)(C)C)nc2n1 + Nc1nc2[nH]cc(CCc3ccc(C(=O)N[C@@H](CCC(=O)O)C(=O)O)cc3)c2c(=O)[nH]1 [Pemetrexed] (partner 0.2 µM)
relative viability: 0.326

compound: O=c1cc(N2CCOCC2)oc2c(-c3cccc4c3sc3ccccc34)cccc12 + Cc1nc(Nc2ncc(C(=O)Nc3c(C)cccc3Cl)s2)cc(N2CCN(CCO)CC2)n1 [Dasatinib] (partner 0.075 µM)
relative viability: 0.287

compound: CCN(CC)CCCCNc1ncc2cc(-c3cc(OC)cc(OC)c3)c(NC(=O)NC(C)(C)C)nc2n1 + Nc1ncn([C@H]2C[C@H](O)[C@@H](CO)O2)c(=O)n1 [Decitabine] (partner 2 µM)
relative viability: 0.368

compound: O=c1cc(N2CCOCC2)oc2c(-c3cccc4c3sc3ccccc34)cccc12 + CC(=O)c1c(C)c2cnc(Nc3ccc(N4CCNCC4)cn3)nc2n(C2CCCC2)c1=O [Palbociclib] (partner 0.5 µM)
relative viability: 0.368

compound: O=c1cc(N2CCOCC2)oc2c(-c3cccc4c3sc3ccccc34)cccc12 + Nc1nc2[nH]cc(CCc3ccc(C(=O)N[C@@H](CCC(=O)O)C(=O)O)cc3)c2c(=O)[nH]1 [Pemetrexed] (partner 0.2 µM)
relative viability: 0.341

compound: O=c1cc(N2CCOCC2)oc2c(-c3cccc4c3sc3ccccc34)cccc12 + CC(C)C[C@H](NC(=O)[C@H](Cc1ccccc1)NC(=O)c1cnccn1)B(O)O [Bortezomib] (partner 0.002 µM)
relative viability: 0.219

compound: CCN(CC)CCCCNc1ncc2cc(-c3cc(OC)cc(OC)c3)c(NC(=O)NC(C)(C)C)nc2n1 + Cc1nc(Nc2ncc(C(=O)Nc3c(C)cccc3Cl)s2)cc(N2CCN(CCO)CC2)n1 [Dasatinib] (partner 0.075 µM)
relative viability: 0.21

compound: CCN(CC)CCCCNc1ncc2cc(-c3cc(OC)cc(OC)c3)c(NC(=O)NC(C)(C)C)nc2n1 + CS(=O)(=O)N1CCN(Cc2cc3nc(-c4cccc5[nH]ncc45)nc(N4CCOCC4)c3s2)CC1 [Pictilisib] (partner 1 µM)
relative viability: 0.477

compound: CCN(CC)CCCCNc1ncc2cc(-c3cc(OC)cc(OC)c3)c(NC(=O)NC(C)(C)C)nc2n1 + N=C(N)NC(=N)NCCc1ccccc1 [Phenformin] (partner 250 µM)
relative viability: 0.319

compound: O=c1cc(N2CCOCC2)oc2c(-c3cccc4c3sc3ccccc34)cccc12 + CS(=O)(=O)N1CCN(Cc2cc3nc(-c4cccc5[nH]ncc45)nc(N4CCOCC4)c3s2)CC1 [Pictilisib] (partner 1 µM)
relative viability: 0.504

compound: CCN(CC)CCCCNc1ncc2cc(-c3cc(OC)cc(OC)c3)c(NC(=O)NC(C)(C)C)nc2n1 + CC(C)C[C@H](NC(=O)[C@H](Cc1ccccc1)NC(=O)c1cnccn1)B(O)O [Bortezomib] (partner 0.002 µM)
relative viability: 0.203

Values from the supplement of paper PMC10307832
